# experimentalProtocol: NCI Yeast Anticancer Drug Screen. Data for the mlh1 rad18 strain (AID 175)
# experimentalParameters: S. cerevisiae mlh1 rad18 strain growth inhibition; at 5.0 µM (retest, dose inferred, filed as 0.5); active compounds read high
Compounds without any hit were thinned out: in the full panel of roughly 79,000, 15% have a hit.
observable: growth inhibition (%)
Your answer should be a plain number; it is taken to be in %.

Task: Determine its reported growth inhibition: `C[C@]12C/C(=C/C(F)(F)F)C(=O)C[C@@H]1CC[C@@H]1[C@@H]2CC[C@]2(C)[C@@H](C(=O)O)CC[C@@H]12`
Result: 93

Task: Identify measured growth inhibition associated with `Cc1ccc(S(=O)(=O)CC(=O)CC(=O)C(=O)Nc2cc(C)ccc2C)cc1`
Result: -2

Task: Identify measured growth inhibition corresponding to CCOC(=O)C1=C(c2ccccc2)c2ccccc2OC1C(=O)O (stereo not drawn)
Result: 34

Task: Answer with reported growth inhibition of O=C(O)C1CCc2ccc3ccccc3c2C1c1cccc2ccccc12 (stereo not drawn)
Result: 52

Task: Return value of growth inhibition for input `CCCCCCCCCCCCCCSC(=NCC)NCC` , no commentary.
Result: 99

Task: Identify measured growth inhibition corresponding to OCC(O)C(O)C(/C=N/Nc1ccccc1)=N/Nc1ccccc1 (stereo not drawn)
Result: 2

Task: Fill in growth inhibition for record `C[n+]1c(/C=C/c2cccc([N+](=O)[O-])c2)sc2ccccc21`
Result: 13

Task: Recall and state the measured growth inhibition for `CCC(=O)c1cc2ccccc2c2ccccc12` .
Result: -2

Task: Determine from records and report growth inhibition for CC1CCCN(CC(O)CN2CCCc3ccccc32)C1 (stereo not drawn)
Result: 6

Task: Determine from records and report growth inhibition for COc1ccccc1C1C2=C(COC2=O)OC(C)(C)Oc2cc3c(cc21)OCO3 (stereo not drawn)
Result: 15

Task: Complete the entry with growth inhibition for Cc1cn(C2OC(CO)C(O)C(O)C2N)c(=O)[nH]c1=O (stereo not drawn)
Result: -4

Task: Tell me its growth inhibition given `O=[N+]([O-])c1ccc(N/N=C/c2cccnc2)cc1` as the entry.
Result: 9

Task: Please report growth inhibition for the following molecule: `CC1=CC(=N/O)/C=CC/1=C(\C#N)c1ccccc1`
Result: -20

Task: Query growth inhibition for `O=C1OCCN1/N=C/c1ccc([N+](=O)[O-])o1`
Result: 30

Task: Could you please provide reported growth inhibition for `O=C1c2cc(F)ccc2-c2c(F)cc(F)c(F)c21` ? Thanks!
Result: 4

Task: Determine from records and report growth inhibition for CSc1ncc2c(n1)-c1ccccc1OC2NC1CC1 (stereo not drawn)
Result: 18

Task: Give the reported value of growth inhibition for this record: CCC(C)(C)c1ccc(OC(=O)C(C)OC(C)=O)cc1 (stereo not drawn)
Result: -10

Task: Name the recorded growth inhibition of the molecule listed here: COc1cccc2c1C(=O)c1c(O)c3c(c(O)c1C2=O)C[C@@](O)(/C(C)=N/NC(=O)c1ccc(Cl)c(Cl)c1)C[C@@H]3OC1CC(N)C(O)C(C)O1 (stereo partly drawn)
Result: 33

###

Kindly supply the reported growth inhibition values for the records listed here.
# experimentalProtocol: NCI Yeast Anticancer Drug Screen. Data for the rad50 strain (AID 155);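 also: 0% = growth of vehicle-only cultures of the same strain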
# experimentalParameters: S. cerevisiae rad50 strain growth inhibition; at 50.0 µM (retest, dose inferred, filed as 5.0); active compounds read high
This is part of a sample that, as a whole, favours compounds with a hit. Of some 79,000 tested, about 15% had one in any assay.
State just the number; it will be interpreted in %.

Task: For the compound CC([NH-])C(=O)O.[Cu+2].[NH-]C(Cc1cnc[nH]1)C(=O)O (stereo unspecified) , give its reported growth inhibition.
Result: 7

Task: Report growth inhibition, nothing else, for this compound: `C1=C(c2ccccc2)[P+](c2ccccc2)(c2ccccc2)C=C(c2ccccc2)[P+]1(c1ccccc1)c1ccccc1`
Result: 98

Task: Please report growth inhibition for the following compound: CCOC(=O)c1cnccc1CC1(C#N)c2ccccc2C=CN1C(=O)c1ccccc1 (stereo unspecified)
Result: 67

Task: Give the value of growth inhibition reported for the following: `CN(C)C(=S)N1C(=S)N(c2ccccc2)C(=Nc2ccccc2)C1=Nc1ccccc1`
Result: -4

Task: Tell me its growth inhibition given `Oc1cccc2cc(Br)cnc12` as the entry.
Result: 99

Task: Supply recorded growth inhibition for `Cc1ccsc1C(=S)Nc1ccc(Cl)c(/C=N/OC(C)C)c1` here.
Result: 15
